B1: PhoQ; a variant is named by its letters at X, in order, P23837 (parent)
chain: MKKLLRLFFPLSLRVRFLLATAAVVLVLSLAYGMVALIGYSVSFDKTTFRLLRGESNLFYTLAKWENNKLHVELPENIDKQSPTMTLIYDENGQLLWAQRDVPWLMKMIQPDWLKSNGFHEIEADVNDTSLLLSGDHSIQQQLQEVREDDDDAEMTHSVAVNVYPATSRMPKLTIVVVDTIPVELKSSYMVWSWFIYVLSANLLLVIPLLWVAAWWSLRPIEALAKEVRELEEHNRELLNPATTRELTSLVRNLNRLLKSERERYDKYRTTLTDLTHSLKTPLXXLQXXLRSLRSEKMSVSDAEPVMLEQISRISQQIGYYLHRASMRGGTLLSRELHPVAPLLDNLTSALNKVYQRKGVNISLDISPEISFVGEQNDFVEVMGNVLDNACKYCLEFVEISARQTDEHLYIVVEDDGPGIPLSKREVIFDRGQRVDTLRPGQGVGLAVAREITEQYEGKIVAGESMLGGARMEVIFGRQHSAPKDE

Variants of: B1
Experiment: enrichment ratio after two sorts for PhoP signalling (ratio (wild type AVST 3.29)); higher = more functional
Details: with PhoP (E. coli)
The full ranking holds about 140,000 sequences; the median of “enrichment ratio after two sorts for PhoP signalling” is about 0, and the highest 2% start at about 11. The sample holds the highest values, similar sequences and a random draw of the others, so the mix is not that of the screen.
RESULT TYPE: enrichment ratio

// known answers, use as guide
FVMM : 8.76
LCVH : ≤ 0.25
MEVH : 1.05
AHKW : ≤ 0.25
ERPG : ≤ 0.25

I would be grateful if you could provide enrichment ratio for each of the following entries.
1. QEVH
2. ANMM
3. FNGW
4. TSCS

A:
["≤ 0.25", 32.7, "≤ 0.25", 14.7]

I would be grateful if you could provide enrichment ratio for each of the following entries.
1. WIVH
2. KSVH

A:
1: ≤ 0.25; 2: ≤ 0.25
